- assayed-system: melanocortin-5 receptor (human, UniProt P33032 1-325)
- Sequence (P33032 whole entry): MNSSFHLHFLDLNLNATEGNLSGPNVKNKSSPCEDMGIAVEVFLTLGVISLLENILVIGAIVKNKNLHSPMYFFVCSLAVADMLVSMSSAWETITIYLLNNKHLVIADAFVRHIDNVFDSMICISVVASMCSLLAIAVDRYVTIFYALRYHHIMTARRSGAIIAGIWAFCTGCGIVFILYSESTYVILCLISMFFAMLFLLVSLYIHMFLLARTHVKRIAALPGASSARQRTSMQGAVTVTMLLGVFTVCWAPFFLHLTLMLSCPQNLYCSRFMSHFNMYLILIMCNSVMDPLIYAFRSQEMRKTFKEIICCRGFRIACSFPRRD
- test-protocol: cell-based or functional assay
Bridge positions count the residues as written; N and C are the ends. Square brackets hold non-standard residues; d marks the D form. dPhe(4-F) = N[C@H](Cc1ccc(F)cc1)C(=O)O; hCys = N[C@@H](CCS)C(=O)O
Values of cAMP Assay (EC-50) greater than or equal to 1000 nM map to satisfied; values below map to not satisfied.

Answered cases to consult:
Ac-R[hCys]A[dF]RWC-NH2 (disulfide 2-7; SMILES CC(=O)N[C@@H](CCCNC(=N)N)C(=O)N[C@H]1CCSSC[C@@H](C(N)=O)NC(=O)[C@H](Cc2c[nH]c3ccccc23)NC(=O)[C@H](CCCNC(=N)N)NC(=O)[C@@H](Cc2ccccc2)NC(=O)[C@H](C)NC1=O) [Compound 15: Ac-Arg-cyclo[hCys-Ala-D-Phe-Arg-Trp-Cys]-NH2] = not satisfied
Ac-ECAH[dF]RWC-NH2 (disulfide 2-8; SMILES CC(=O)N[C@@H](CCC(=O)O)C(=O)N[C@H]1CSSC[C@@H](C(N)=O)NC(=O)[C@H](Cc2c[nH]c3ccccc23)NC(=O)[C@H](CCCNC(=N)N)NC(=O)[C@@H](Cc2ccccc2)NC(=O)[C@H](Cc2c[nH]cn2)NC(=O)[C@H](C)NC1=O) [Compound 22: Ac-Glu-cyclo[Cys-Ala-His-D-Phe-Arg-Trp-Cys]-NH2] = satisfied

Field: next binder
Problem: Given the entry Ac-RC[dA]P[dPhe(4-F)]RWC-NH2 (disulfide 2-8; SMILES CC(=O)N[C@@H](CCCNC(=N)N)C(=O)N[C@H]1CSSC[C@@H](C(N)=O)NC(=O)[C@H](Cc2c[nH]c3ccccc23)NC(=O)[C@H](CCCNC(=N)N)NC(=O)[C@@H](Cc2ccc(F)cc2)NC(=O)[C@@H]2CCCN2C(=O)[C@@H](C)NC1=O) [Compound 14: Ac-Arg-cyclo[Cys-D-Ala-Pro-D-Phe(p-F)-Arg-Trp-Cys]-NH2] , answer whether its cAMP Assay (EC-50) meets or surpasses 1000 nM.
Solution: not satisfied
